Here the recorded log10 of O2 permeability is given for each entry.
Values below are the log10 of the recorded O2 permeability, with Barrer as the unit.

Below, 6 molecules whose answers are already recorded.
INSERT INTO results (molecule, propertyname, value) VALUES
  ('*/C=C/c1ccc(*)cc1[Si](C)(C)CCCCCCCC (repeat unit)', 'log10 of O2 permeability', 1.08),
  ('*c1ccc(Cc2ccc(N3C(=O)c4ccc(C(=O)c5ccc6c(c5)C(=O)N(*)C6=O)cc4C3=O)cc2)cc1 (repeat unit)', 'log10 of O2 permeability', -0.68),
  ('*/C(C)=C(/*)[Si](C)(C)CCC (repeat unit)', 'log10 of O2 permeability', 1.85),
  ('*c1cccc(N2C(=O)c3ccc(Oc4ccc5c(c4)C(=O)N(*)C5=O)cc3C2=O)c1 (repeat unit)', 'log10 of O2 permeability', -1.09),
  ('*c1ccc2c(c1)nc1n2C(=O)c2ccc(C(=O)Oc3ccc(C(c4ccc(OC(=O)c5ccc6c(c5)C(=O)n5c-6nc6ccc(*)cc65)cc4)(C(F)(F)F)C(F)(F)F)cc3)cc2-1 (repeat unit)', 'log10 of O2 permeability', -0.01),
  ('*c1c(C)cc(-c2cc(C)c(N3C(=O)c4ccc(Oc5cc(C(C)(C)C)c(Oc6ccc7c(c6)C(=O)N(*)C7=O)cc5C(C)(C)C)cc4C3=O)c(C)c2)cc1C (repeat unit)', 'log10 of O2 permeability', 1.34);

Documented log10 of O2 permeability of *c1c(C)cc2c(c1C)C1c3ccccc3C2c2cc(C)c(-n3c(=O)c4cc5c(=O)n(*)c(=O)c5cc4c3=O)c(C)c21 (repeat unit) : 2.83

###

Here the recorded O2 permeability is given for each entry.
Quick reminder: number only, in Barrer, skip the unit.

Below, 6 compounds whose answers are already recorded.
INSERT INTO measurements (compound, propertyname, resultunits, value) VALUES
  ('*Oc1ccc(C(C)(C)c2ccc(OC(=O)c3ccc(C(=O)Oc4cc(-c5cc(*)cc6ccccc56)c5ccccc5c4)cc3)cc2)cc1 (repeat unit)', 'O2 permeability', 'Barrer', 2.04),
  ('*c1cc2c(cc1O)C1(CC2(C)C)CC(C)(C)c2cc(N3C(=O)C4C(C3=O)C3(Br)C(Br)=C(Br)C4(Br)C4C(=O)N(*)C(=O)C43)c(O)cc21 (repeat unit)', 'O2 permeability', 'Barrer', 31.2),
  ('*Oc1ccc(C(C)(C)c2ccc(Oc3ccc(C(=O)c4ccc(C(=O)c5ccc(*)cc5)cc4)cc3)cc2)cc1 (repeat unit)', 'O2 permeability', 'Barrer', 0.604),
  ('*C(C)=C(*)C(C)C (repeat unit)', 'O2 permeability', 'Barrer', 2700),
  ('*Oc1c(C)cc(C(C)(C)c2cc(C)c(OC(*)=O)c(C)c2)cc1C (repeat unit)', 'O2 permeability', 'Barrer', 5.6),
  ('*CN1CN(*)c2cc3c(cc21)C1(C(C)C)c2ccccc2C3(C(C)C)c2cc(*)c(*)cc21 (repeat unit)', 'O2 permeability', 'Barrer', 1070);

Documented O2 permeability of *CC(*)c1ccc(OC)cc1 (repeat unit) : 2.6

Documented O2 permeability of *CC(*)C (repeat unit) : 1.41

###

Here the recorded log10 of CO2 permeability is given for each entry.
Values below are the log10 of the recorded CO2 permeability, with Barrer as the unit.

Below, 5 compounds whose answers are already recorded.
INSERT INTO measurements (compound, value) VALUES
  ('*c1c(C)c2c(c(N3C(=O)c4ccc(Oc5ccc6c(c5)C(=O)N(*)C6=O)cc4C3=O)c1C)C(C)(C)CC2 (repeat unit)', 2.21),
  ('*C(=C(*)c1cccc(O[Si](C)(C)C(C)(C)C)c1)c1ccc([Si](C)(C)C)cc1 (repeat unit)', 3.46),
  ('*Oc1c(Br)cc(C(c2cc(Br)c(OC(=O)c3cccc(C(*)=O)c3)c(Br)c2)(C(F)(F)F)C(F)(F)F)cc1Br (repeat unit)', 1.55),
  ('*Cc1ccc(C*)c(Cl)c1 (repeat unit)', -1.06),
  ('*c1ccc(Oc2ccc(Oc3ccc(Oc4ccc(N5C(=O)c6ccc(-c7ccc8c(c7)C(=O)N(*)C8=O)cc6C5=O)cc4)cc3)cc2)cc1 (repeat unit)', 0.10);

Documented log10 of CO2 permeability of */N=C1/c2ccc(C(c3ccc4c(c3)-c3nc5cc(Oc6ccc(*)c(*)c6)ccc5n3C4=O)(C(F)(F)F)C(F)(F)F)cc2C(=O)N1* (repeat unit) : 1.44

Documented log10 of CO2 permeability of */C=C/c1ccc(*)cc1[Si](C)(C)C(C)(C)C (repeat unit) : 1.41

###

The label depends only on N2 permeability: rule met if it is at least 2 Barrer, rule not met if it is smaller.

Below, 3 molecules whose answers are already recorded.
INSERT INTO results (molecule, classlabel) VALUES
  ('*C(=C(*)c1ccc([Si](C(C)C)(C(C)C)C(C)C)cc1)c1ccccc1 (repeat unit)', 'rule met'),
  ('*CC(C#N)(C#N)CC(*)OC(C)=O (repeat unit)', 'rule not met'),
  ('*Oc1ccc(Oc2cccc(*)c2C#N)c(-c2cccc(C)c2)c1 (repeat unit)', 'rule not met');

// query hey, is N2 permeability for this one >= 2 Barrer? *c1ccc(-c2ccc(Oc3ccc(C4(c5ccc(Oc6ccc(-c7ccc(-n8c(=O)c9cc%10c(=O)n(*)c(=O)c%10cc9c8=O)cc7)cc6C(F)(F)F)cc5)c5ccccc5C(=O)N4c4ccccc4)cc3)c(C(F)(F)F)c2)cc1 (repeat unit)
// result rule not met

// query hey, is N2 permeability for this one >= 2 Barrer? *c1ccc(Sc2ccc(N3C(=O)c4ccc(C(c5ccc6c(c5)C(=O)N(*)C6=O)(C(F)(F)F)C(F)(F)F)cc4C3=O)cc2)cc1 (repeat unit)
// result rule not met

// query hey, is N2 permeability for this one >= 2 Barrer? *Oc1ccc(C(C)(c2ccccc2)c2ccc(OC(=O)c3cccc(C(*)=O)c3)cc2)cc1 (repeat unit)
// result rule not met

// query hey, is N2 permeability for this one >= 2 Barrer? *C(=C(*)c1ccc([Si](C)(C)C)cc1)c1ccccc1 (repeat unit)
// result rule met

// query hey, is N2 permeability for this one >= 2 Barrer? *OC(=O)c1ccc(C(=O)Oc2ccc(C3(c4ccc(O*)cc4)OC(=O)c4ccccc43)cc2)cc1 (repeat unit)
// result rule not met

// query hey, is N2 permeability for this one >= 2 Barrer? *Oc1c(C)cc(-c2cc(C)c(Oc3ccc(S(=O)(=O)c4ccc(*)cc4)cc3)c(C)c2)cc1C (repeat unit)
// result rule not met

// query hey, is N2 permeability for this one >= 2 Barrer? *c1ccc(C(c2ccc(-n3c(=O)c4cc5oc6cc7c(cc6oc5cc4c3=O)C3(CC(C)(C)c4cc5oc6cc8c(=O)n(*)c(=O)c8cc6oc5cc43)CC7(C)C)cc2)(C(F)(F)F)C(F)(F)F)cc1 (repeat unit)
// result rule met

// query hey, is N2 permeability for this one >= 2 Barrer? *Oc1ccc(C(C)(C)c2ccc(OC(=O)c3ccc(C(*)=O)cc3)cc2)cc1 (repeat unit)
// result rule not met

// query hey, is N2 permeability for this one >= 2 Barrer? *Oc1ccc(C2(c3ccc(Oc4ccc(S(=O)(=O)c5ccc(*)cc5)cc4)cc3)OC(=O)c3ccccc32)cc1 (repeat unit)
// result rule not met

// query hey, is N2 permeability for this one >= 2 Barrer? *CC* (repeat unit)
// result rule not met

// query hey, is N2 permeability for this one >= 2 Barrer? *c1ccc(-c2ccc(C(*)(C(F)(F)F)C(F)(F)F)cc2)cc1 (repeat unit)
// result rule met

// query hey, is N2 permeability for this one >= 2 Barrer? *Oc1ccc(Oc2ccc(C(=O)c3ccc(*)cc3)cc2)cc1 (repeat unit)
// result rule not met

// query hey, is N2 permeability for this one >= 2 Barrer? *C1C2CC(CF)C(C2)C1* (repeat unit)
// result rule met

// query hey, is N2 permeability for this one >= 2 Barrer? *Oc1ccc(S(=O)(=O)c2ccc(Oc3ccc(C(C)(C)c4cccc(*)c4)cc3)cc2)cc1 (repeat unit)
// result rule not met

// query hey, is N2 permeability for this one >= 2 Barrer? *Oc1ccc(Oc2ccc(C(=O)c3ccc(*)cc3)cc2)c(-c2cc(C(F)(F)F)cc(C(F)(F)F)c2)c1 (repeat unit)
// result rule not met

// query hey, is N2 permeability for this one >= 2 Barrer? *c1c(C)cc(C)c(N2C(=O)c3ccc(Sc4ccc5c(c4)C(=O)N(*)C5=O)cc3C2=O)c1C (repeat unit)
// result rule not met

###

Here the recorded log10 H2 permeability is given for each entry.
Values below are the log10 of the recorded H2 permeability, with Barrer as the unit.

INSERT INTO measurements (molecule, propertyname, value) VALUES
  ('*OC1OC(OC(C)=O)C(*)C(OC(C)=O)C1OC(C)=O (repeat unit)', 'log10 H2 permeability', 1.19);

Documented log10 H2 permeability of */C=C/C1CC(*)CC1[Si](C)(C)C[Si](C)(C)C (repeat unit) : 1.86

Documented log10 H2 permeability of *Oc1ccc(C(C)(C)c2ccc(Oc3ccc(C(=O)c4ccc(*)cc4)cc3)cc2)cc1 (repeat unit) : 1.04

Documented log10 H2 permeability of *c1ccc2c(c1)C1(CC2(C)C)CC(C)(C)c2ccc(N3C(=O)c4cc5c(cc4C3=O)C3(CC(C)(C)c4cc6c(cc43)C(=O)N(*)C6=O)CC5(C)C)cc21 (repeat unit) : 2.80

Documented log10 H2 permeability of *Oc1ccc(Oc2ccc(C(=O)c3ccc(*)cc3)cc2)c(-c2cc(C(F)(F)F)cc(C(F)(F)F)c2)c1 (repeat unit) : 1.32

Documented log10 H2 permeability of *Nc1cccc(NC(=O)c2ccc(C(c3ccc(C(*)=O)cc3)(C(F)(F)F)C(F)(F)F)cc2)c1 (repeat unit) : 1.36

Documented log10 H2 permeability of *c1cc2c(cc1C)-c1cc(C)c(N3C(=O)c4ccc(C(c5ccc6c(c5)C(=O)N(*)C6=O)(C(F)(F)F)C(F)(F)F)cc4C3=O)cc1S2(=O)=O (repeat unit) : 2.19
